biological target: Adrenergic receptor alpha-1 (Rattus norvegicus, UniProt P15823+P23944+P43140); test: Binding affinity against rat Alpha-1 adrenergic receptor.; type: protein assay
# label = Condition met if Ki < 100 nM else Condition not met

COMPOUND | LABEL CLASS
Clc1cncc(N2CCNCC2)n1 [MK-212] | Condition not met
FC(F)(F)c1cccc(N2CCNCC2)c1 | Condition not met
COc1ccccc1N1CCNCC1 | Condition not met
CCOc1ccccc1N1CCNCC1 | Condition met
c1ccc(N2CCNCC2)cc1 [PHENYLPIPERAZINE] | Condition not met
O=[N+]([O-])c1cccc(N2CCNCC2)c1 | Condition not met
Fc1ccccc1N1CCNCC1 | Condition not met
N#Cc1ccccc1N1CCNCC1 | Condition not met
CCCc1ccccc1N1CCNCC1 | Condition not met
Clc1cccc(N2CCNCC2)c1 [CHLOROPHENYLPIPERAZINE] | Condition not met
CC(C)c1ccccc1N1CCNCC1 | Condition not met
CCc1ccccc1N1CCNCC1 | Condition met
Fc1cccc(N2CCNCC2)c1 | Condition not met
CCCCOc1ccccc1N1CCNCC1 | Condition not met
CC(C)Oc1ccccc1N1CCNCC1 | Condition met
CCCCc1ccccc1N1CCNCC1 | Condition met
Oc1ccccc1N1CCNCC1 | Condition not met
Cc1ccccc1N1CCNCC1 | Condition not met
